Catalogue of protein stability index readings, one per entry.
Experiment: protein stability index of a GFP-peptide fusion (yeast GPS) (PSI 1-4); higher = more stable; sorted into four equal gates, so the index is relative within each strain
Conditions: pdr5∆

QUERY_SEQUENCE: EGDGAKAAISFGAKPEE [YJL041W/NSP1]
protein stability index: 3

QUERY_SEQUENCE: DDLIHFTLKQWNRLTIS [COR1]
protein stability index: 1.34

QUERY_SEQUENCE: QRCKSNAISLQLKYDTS [YIL149C/MLP2]
protein stability index: 1.66

QUERY_SEQUENCE: LISSSLSNLSKDIKANL [YCS4]
protein stability index: 1.72

QUERY_SEQUENCE: INIKYLRLDGHTKSDER [SNF2]
protein stability index: 2.11

QUERY_SEQUENCE: VAMCFVINKLDRLILDL [SNU114]
protein stability index: 2.24

QUERY_SEQUENCE: RKLEISSRFKHRQEIFK [GAL11]
protein stability index: 3.1

---

Assay: protein stability index of a GFP-peptide fusion (yeast GPS) (PSI 1-4); higher = more stable; sorted into four equal gates, so the index is relative within each strain
Settings: san1∆
Catalogue of protein stability index readings, one per entry.

QUERY_SEQUENCE: QYTKDEQFYTKDIIDPK [RPN2]
protein stability index: 2.78
//
QUERY_SEQUENCE: EEAGEEEAKEEVTEEQA [RPS0A]
protein stability index: 3.02
//
QUERY_SEQUENCE: SHLVVPYCPIASITGTG [YMR129W/POM152]
protein stability index: 1.33
//
QUERY_SEQUENCE: KSLLLNTLNIDNTARVI [BRN1]
protein stability index: 2.47
//
QUERY_SEQUENCE: ILQNEHDYWNKIMQSIS [SRB4]
protein stability index: 1.92
//
QUERY_SEQUENCE: TDYLYRRLHDENLMVQR [YCS4]
protein stability index: 2.45
//
QUERY_SEQUENCE: IPMDFIRNVLVTVDQYV [SSN2]
protein stability index: 1.33
//
QUERY_SEQUENCE: TASSLAHDYNNDQDMFT [YML103C/NUP188]
protein stability index: 3.17
//
QUERY_SEQUENCE: QNNSTGSSSIIYYDSYI [SSN2]
protein stability index: 2.79
//
QUERY_SEQUENCE: APSDFSENQRQIFCVFS [GRR1]
protein stability index: 2.76
//
QUERY_SEQUENCE: SSVIQNYDIITASSLAH [YML103C/NUP188]
protein stability index: 1.98
//
QUERY_SEQUENCE: LWDQDIAIAGTGQIEGL [COR1]
protein stability index: 3.05
//
QUERY_SEQUENCE: LENMPHPWEQAKEVKVL [PRP8]
protein stability index: 3.09
//
QUERY_SEQUENCE: FKDRFKDEPVQNDILQE [FAS2]
protein stability index: 3.23

---

Catalogue of protein stability index readings, one per entry.
Assay: protein stability index of a GFP-peptide fusion (yeast GPS) (PSI 1-4); higher = more stable; sorted into four equal gates, so the index is relative within each strain
Conditions: ubr1∆

QUERY_SEQUENCE: CLLSIPKSTKGKILTIK [YML103C/NUP188]
protein stability index: 1.97
--
QUERY_SEQUENCE: RRLDALVEKVYARFKND [ITC1]
protein stability index: 2.29
--
QUERY_SEQUENCE: KFTIEPGVLPVGIDTHT [SNF2]
protein stability index: 2.73
--
QUERY_SEQUENCE: DRKKDKNVKHSGNIQLD [RPL12A]
protein stability index: 3.18
--
QUERY_SEQUENCE: PSTRSNFILEVFGTIIP [YJL039C/NUP192]
protein stability index: 1.35
--
QUERY_SEQUENCE: PLELSAPIGKHYVVLDT [DIS3]
protein stability index: 2.39
--
QUERY_SEQUENCE: RNTMMIQCQIDKLYIHF [RGR1]
protein stability index: 2.19
--
QUERY_SEQUENCE: IVEINNVSNTFNKTTNI [YJL041W/NSP1]
protein stability index: 2.86
--
QUERY_SEQUENCE: QHYKNNSISSQPASYHS [SSN2]
protein stability index: 2.78
--
QUERY_SEQUENCE: NNEMKSLQRSKSSFVKE [SMC1]
protein stability index: 3.28
--
QUERY_SEQUENCE: KIEFPLPSEDSRAQILQ [RPT5]
protein stability index: 3.51
--
QUERY_SEQUENCE: NIEEMARVILYLKNVLF [SIN4]
protein stability index: 2.05
--
QUERY_SEQUENCE: MTMQVAVPRDELGRSNY [FAS1]
protein stability index: 2.99
--
QUERY_SEQUENCE: LMTHITTDDEEEPIKKL [RET1]
protein stability index: 3.49
--
QUERY_SEQUENCE: AMSETLSKVSLLTPDIG [PRE8]
protein stability index: 3.35
--
QUERY_SEQUENCE: VNSYRLNPNEYFSVTTA [SWI3]
protein stability index: 2.78
--
QUERY_SEQUENCE: DQAELPNNASSHISASA [SNF2]
protein stability index: 2.35
--
QUERY_SEQUENCE: QLFRTNKVQIMIATNVA [PRP28]
protein stability index: 1.7
--
QUERY_SEQUENCE: NILPFLWGPHGLNSDAE [ECM29]
protein stability index: 2.42
--
QUERY_SEQUENCE: IKDLQRAINKVLCTRLR [SIR2]
protein stability index: 1.54
--
QUERY_SEQUENCE: SELQPQNRSLQEHNIQD [SNF2]
protein stability index: 3.09
--
QUERY_SEQUENCE: VEEKPGDRGALARASGN [RPL2A]
protein stability index: 3.13
--
QUERY_SEQUENCE: KRKEELVSTLTTGISST [SMC2]
protein stability index: 2.11
--
QUERY_SEQUENCE: SSLHSPTSDEPVPESAG [SRB4]
protein stability index: 3
--
QUERY_SEQUENCE: LDSNFNLQREIDQAHVS [RPN14]
protein stability index: 2.65
--
QUERY_SEQUENCE: EGQADIDMESDVEDDDK [POP7]
protein stability index: 3.27
--
QUERY_SEQUENCE: KRAFENFKKFNERRKDL [SMC3]
protein stability index: 3.15
--
QUERY_SEQUENCE: SVGLPSKVASSLVIIIL [ECM29]
protein stability index: 2.21
--
QUERY_SEQUENCE: IRIYFTEKDDNKTNNED [NUT1]
protein stability index: 2.87
--
QUERY_SEQUENCE: DSAAIIAATGLNQINGL [GRR1]
protein stability index: 2.96

---

Catalogue of protein stability index readings, one per entry.
Test: protein stability index of a GFP-peptide fusion (yeast GPS) (PSI 1-4); higher = more stable; sorted into four equal gates, so the index is relative within each strain
Settings: ubr1∆

QUERY_SEQUENCE: HLVWMKGTNDEGTSISV [YCS4]
protein stability index: 2.2
--
QUERY_SEQUENCE: MSLPATFDLTPEDAQLL [RPS0A]
protein stability index: 2.31
--
QUERY_SEQUENCE: LSLDSDVKFPSNTTTQI [SMC3]
protein stability index: 3.32
--
QUERY_SEQUENCE: VKEYQLRDRNFSATGNF [RPL11A]
protein stability index: 3.22
--
QUERY_SEQUENCE: KVYYFQGGNNELGTAVG [RPL30]
protein stability index: 2.89
--
QUERY_SEQUENCE: VDFEKFETFLVDVNNKF [SIN4]
protein stability index: 3.31
--
QUERY_SEQUENCE: TWENEFLDSQRVWAEYA [PRP8]
protein stability index: 2.89
--
QUERY_SEQUENCE: SAISVTNVEDPLAKKQT [SIR2]
protein stability index: 3.2
--
QUERY_SEQUENCE: CGLMTVIAKLNHNQFEC [RPB2]
protein stability index: 1.7
--
QUERY_SEQUENCE: EDVVAISSRTYGQRAVL [RPS0B]
protein stability index: 3.1
--
QUERY_SEQUENCE: ELISFKERTKSLEHELK [YIL149C/MLP2]
protein stability index: 2.78
--
QUERY_SEQUENCE: ENEDGNIEERKEKIQHE [BRR2]
protein stability index: 3.3
--
QUERY_SEQUENCE: FTNRSTMMANFEEWIKM [BRN1]
protein stability index: 2.65
--
QUERY_SEQUENCE: VFERFKTKILEVAIRDV [IRR1]
protein stability index: 1.67
--
QUERY_SEQUENCE: NMMDAISFVLGVRSNHL [SMC1]
protein stability index: 2.66

---

Assay: protein stability index of a GFP-peptide fusion (yeast GPS) (PSI 1-4); higher = more stable; sorted into four equal gates, so the index is relative within each strain
Settings: pdr5∆
Catalogue of protein stability index readings, one per entry.

QUERY_SEQUENCE: HLLPAFLKVKGLVKQHL [RET1]
protein stability index: 3.8

QUERY_SEQUENCE: KRAKEFITTLLKSLYSF [SIN4]
protein stability index: 1.94

QUERY_SEQUENCE: KKKGLDENTSGKISKPR [PRP28]
protein stability index: 3.23

QUERY_SEQUENCE: FVRQAAMIALSMILIQQ [RPN2]
protein stability index: 1.75

QUERY_SEQUENCE: TSKSFSKLLYDDVTCDK [SIN4]
protein stability index: 2.9

QUERY_SEQUENCE: DSENFSFEKLYEGMKLG [YMR129W/POM152]
protein stability index: 3.48

QUERY_SEQUENCE: CQILDGELDVLQIESVT [PRP8]
protein stability index: 2.78

QUERY_SEQUENCE: NFRTMQQQQMQQQQQQQ [SSN2]
protein stability index: 3.15

Reference for the values: the supplement of paper PMC9732359
